Record form. Attribute: PT. Fill in for each entry.
Species: Rattus norvegicus
test: Open TG-GATES - Regimen: Single
Assay type: toxicity, organism-based, Sprague-Dawley
Parameters: regimen Single, gender Male, age 6 weeks
assay-setup: in vivo, po, 0 mg/kg, 3 h, tissue Blood, route gavage, dose level Control
Answers are plain numbers, in s.

Consider the following illustrative entries.
>>> df
                                   molecule  value_type  assay_value
0  CC(=O)N1CCN(c2ccc(OCC3COC(Cn4ccnc4)(c4ccc(Cl)cc4Cl)O3)cc2)CC1 (configuration not stated)          PT         16.9
1                                CCN(CC)N=O          PT           12
2  CC(CCc1ccccc1)NCC(O)c1ccc(O)c(C(N)=O)c1 (configuration not stated)          PT         13.1
3          O=C(O)COc1nn(Cc2ccccc2)c2ccccc12          PT         11.2
4              CC[C@@H](CO)NCCN[C@@H](CC)CO          PT         15.9
5  CC(C)Cc1ccc(C(C)C(=O)O)cc1 (configuration not stated)          PT         15.8

Let's switch to this molecule now.
Endpoint output: PT of "CC(=O)Nc1ccc2c(c1)Cc1ccccc1-2" . Value? 11.9
